- System: Aβ40 in conditioned medium of cells stably expressing Amyloid Precursor Protein (APP)
- Protocol Description: In vitro BACE cell-based assay (HEK cell assay), Aβ40 sandwich ELISA
- Condition Summary: Homo sapiens, HEK293, average IC50
Quantity: pIC50
A value of pIC50 is the negative decimal logarithm of a concentration given in moles per litre.

Which measured pIC50 belongs to COc1cnc(C(=O)Nc2cc([C@@]3(C)CS(=O)(=O)C(C)(C)C(N)=N3)c(F)cn2)cn1 [Example 142] , tested on Aβ40 in conditioned medium of cells stably expressing Amyloid Precursor Protein (APP)?
5.36

###

- Measured On: Beta Secretase enzyme (BACE1) (Homo sapiens (Human))
- Protocol Description: In vitro enzymatic BACE FRET assay
- Format: biochemical
- Condition Summary: average IC50
Quantity: IC50 (µM)
Reply numerically in µM, unit not repeated.

Suppose we examine the compound COc1cnc(C(=O)Nc2cc([C@@]3(C)CS(=O)(=O)C(C)(C)C(N)=N3)c(F)cn2)cn1 ; what IC50 value has been reported?
10

###

- Measured On: Cathepsin D (Cat D) (Homo sapiens (Human), UniProt P07339)
- Sequence (P07339 65-412, species assumed): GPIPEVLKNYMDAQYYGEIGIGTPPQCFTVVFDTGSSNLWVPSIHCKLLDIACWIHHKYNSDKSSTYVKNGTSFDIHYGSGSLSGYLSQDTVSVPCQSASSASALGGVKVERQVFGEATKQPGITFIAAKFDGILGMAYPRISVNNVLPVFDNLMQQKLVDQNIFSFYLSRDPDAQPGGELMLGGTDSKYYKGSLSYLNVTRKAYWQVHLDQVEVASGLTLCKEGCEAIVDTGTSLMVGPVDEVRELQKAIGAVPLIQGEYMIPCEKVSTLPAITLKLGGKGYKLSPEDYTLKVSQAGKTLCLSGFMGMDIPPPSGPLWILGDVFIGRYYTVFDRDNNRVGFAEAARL
- Protocol Description: In vitro enzymatic Cathepsin D (Cat D) FRET assay
- Assay type: biochemical
- Condition Summary: Table II; read-out: CatD IC50
Quantity: pIC50
A value of pIC50 is the negative decimal logarithm of a concentration given in moles per litre.

1) Cc1cc(C(F)F)cnc1C(=O)Nc1ccc(F)c([C@]2(C)CS(=O)(=O)[C@]3(C[C@@H](F)C3)C(N)=N2)c1 [Example 338]; 4.23

Turning to the following molecule.
State the recorded pIC50 for this entry: COc1cnc(C(=O)Nc2cc([C@]3(C)CS(=O)(=O)C(C)(C)C(N)=N3)c(F)cn2)cn1 [Example 143]
3.66

###

- Measured On: Beta Secretase enzyme (BACE1) (Homo sapiens (Human), UniProt P56817)
- Sequence (P56817 46-501): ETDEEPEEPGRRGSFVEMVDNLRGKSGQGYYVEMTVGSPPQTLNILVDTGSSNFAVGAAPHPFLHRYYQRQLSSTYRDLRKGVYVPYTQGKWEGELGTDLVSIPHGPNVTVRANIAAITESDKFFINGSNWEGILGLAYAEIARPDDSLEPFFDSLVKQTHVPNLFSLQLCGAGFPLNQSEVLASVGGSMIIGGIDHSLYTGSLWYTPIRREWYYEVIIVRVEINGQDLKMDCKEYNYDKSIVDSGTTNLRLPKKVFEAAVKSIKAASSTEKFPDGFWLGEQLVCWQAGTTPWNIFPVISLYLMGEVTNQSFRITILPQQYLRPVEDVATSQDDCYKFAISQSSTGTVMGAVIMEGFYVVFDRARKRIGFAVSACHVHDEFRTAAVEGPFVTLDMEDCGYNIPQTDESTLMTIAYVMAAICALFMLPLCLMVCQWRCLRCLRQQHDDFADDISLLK
- Protocol Description: In vitro enzymatic BACE FRET assay
- Type: biochemical
- Condition Summary: average IC50, enzyme assay
IC50 values by entry
// return numeric value only (unit: nM, not printed)

Before answering, review these 4 worked examples.
1. Cc1c(C(=O)Nc2ccc(F)c([C@@]3(C)N=C(N)C4(CC4)S(=O)(=O)[C@H]3F)c2)nc2ccc(Cl)cn12; 3.2
2. CC1(C)C(N)=NC2(c3cc(Br)ccc3F)COCC2S1(=O)=O (stereo not shown); 30200
3. COc1cnc(C(=O)Nc2ccc(F)c([C@]3(C)CS(=O)(=O)[C@]4(C[C@@H](F)C4)C(N)=N3)c2)c(C)c1; 4.6
4. COc1cnc(C(=O)Nc2ccc(F)c([C@]3(C)CS(=O)(=O)[C@]4(C[C@H](OC)C4)C(N)=N3)c2)c(C)c1; 15.7

--- query ---
Request the reported IC50 associated with Cc1c(C(=O)Nc2ccc(F)c([C@]3(C)CS(=O)(=O)[C@]4(C[C@@H](F)C4)C(N)=N3)c2)nc2ccc(Cl)cn12
4
